- Tested on: HT29 colon
- assayProcedure: NCI tumour cell line growth inhibition, 48 h

compound	prefixOperator	TGI [µM]
O=C1NCc2ccccc2S(=O)(=O)n2cccc21	>	100
CN[C@H](C#Cc1c(F)ccc2c1/C(=C/c1[nH]ccc1OC)C(=O)N2)CO	=	2.39
COc1cc2oc3cc(=O)cc4oc(-c5ccccc5)cc(c2c2c1CCC(c1ccccc1)O2)c43 (stereo not given)	=	66.2
NC(=O)c1ccc(I)c(N=O)c1	=	39.5
CCOC(=O)c1nc2ccccc2nc1NCc1cc(OC)c(OC)c(OC)c1	>	100
CN(C)CCN(C)c1ccc2c(=O)n(CCN(C)C)c(=O)n3c4ccccc4c(=O)c1c23	=	3.73
CCOC1=C2C(=O)OC(=O)C2C2CCCCC2=C1 (stereo not given)	>	100
COc1cc([C@@H]2c3cc4c(cc3[C@@H](OC(=O)c3ccc(N)cc3)C3COC(=O)[C@@H]32)OCO4)cc(OC)c1O (stereo not given in full)	=	21.2
CCOC(=O)C(NC(=O)c1ccco1)(Nc1nc2ccc(OCC)cc2s1)C(F)(F)F (stereo not given)	>	100
CC1CC2OC(=O)C(C)C2CC2(C)C(OC3OC(CO)C(O)C(O)C3O)OCCC12 (stereo not given)	>	100

###

- System: XF 498 CNS
- assayProcedure: NCI tumour cell line growth inhibition, 48 h
Recorded measurements of TGI, one per entry

compound	TGI
COc1ccc(N=Cc2ccc(N(CCC#N)S(=O)(=O)c3ccccc3)cc2)cc1	> 100 µM
C=CCC(N(C)C(=O)[C@H](Cc1ccccc1)NC(=O)OCc1ccccc1)P(=O)(Oc1ccccc1)Oc1ccccc1 (some centres not stated)	> 100 µM
O=C(CC(=O)C1=CNc2ccccc2S1)C(=O)Nc1ccc(Cl)cc1	> 50 µM
O=c1cccccc1[O-].O=c1cccccc1[O-].[O]=[U+2]=[O]	47.3 µM
CCOC1=C2C(=O)OC(=O)C2C2CCCCC2=C1 (configuration not stated)	> 100 µM
OCC1C(/C=C/c2ccoc2)ON2CCCC12 (configuration not stated)	> 100 µM
O=C1C2C3C=C4c5ccccc5N(c5ccccc5)C4(C2C(=O)N1c1ccc(Cl)cc1)[C@H]1C(=O)N(c2ccc(Cl)cc2)C(=O)[C@@H]31 (some centres not stated)	> 100 µM

###

- Tested on: KM20L2 colon
- assayProcedure: NCI tumour cell line growth inhibition, 48 h
readoutName: TGI

compound	measValue
CCOc1ccc(/C(Cl)=C(\C=O)c2ccc(OC)c(OC)c2)cc1OCC	> 100 µM
OCC1C(/C=C/c2ccoc2)ON2CCCC12 (stereo unspecified)	> 100 µM
C=CCC(N(C)C(=O)[C@H](Cc1ccccc1)NC(=O)OCc1ccccc1)P(=O)(Oc1ccccc1)Oc1ccccc1 (stereo partly specified)	> 100 µM
COc1cc2c(ccc3c4cc(OC)c(OC)cc4c[n+](C)c23)cc1O	> 75 µM
COc1cc(NC(C)CCCN)c2ncccc2c1 (stereo unspecified)	> 100 µM
O=C(OCN1C(=O)C2C3C=CC(C2C1=O)C1C2C(=O)N(COC(=O)C4CCCN4)C(=O)C2C31)C1CCCN1 (stereo unspecified)	> 100 µM
O=c1cccccc1[O-].O=c1cccccc1[O-].[O]=[U+2]=[O]	> 100 µM
CCOC(=O)/C=C/n1c2ccccc2c(=O)c2ccccc21	> 100 µM
O=C1c2ccccc2OP(=O)(OCC(F)(F)F)OC1(C(F)(F)F)C(F)(F)F (stereo unspecified)	> 100 µM
COc1cc([C@@H]2c3cc4c(cc3[C@@H](OC(=O)c3ccc(N)cc3)C3COC(=O)[C@@H]32)OCO4)cc(OC)c1O (stereo partly specified)	3.57 µM
c1cc2n(n1)CCN2	> 10000 µM

###

- System: M14 melanoma
- assayProcedure: NCI tumour cell line growth inhibition, 48 h
Reported values of log10 of TGI for individual entries
readoutName: log10 of TGI (log10 of the value in µM)

compound	assayedSystem	log10 of TGI
O=C(NCCNCCCNC(=O)c1cc(-c2ccccc2)nc2ccccc12)c1cccc(O)c1O	M14 melanoma	1.02
NC(=O)c1ccc(I)c(N=O)c1	M14 melanoma	1.92
O=C(Nc1cccc(-n2cc(-c3ccncc3)c(-c3ccc(Cl)c(O)c3)n2)c1)c1ccc(N2CCOCC2)c(C(F)(F)F)c1	M14 melanoma	0.96
CC(=O)O[C@H]1C(=O)[C@@]2(C)[C@H]([C@H](OC(=O)c3ccccc3)[C@]3(O)C[C@H](OC(=O)[C@H](O)[C@@H](NC(=O)c4cccc(N=[N+]=[N-])c4)c4ccccc4)C(C)=C1C3(C)C)[C@]1(OC(C)=O)CO[C@@H]1C[C@@H]2O	M14 melanoma	0.51
COc1ccc2c(=O)cc(-c3ccncc3)oc2c1OC	M14 melanoma	1.59
CCC(C)[C@H]1O[C@]2(C=C[C@@H]1C)C[C@@H]1C[C@@H](C/C=C(\C)[C@@H](OC3C[C@H](OC)C(O[C@H]4C[C@H](OC)[C@@H](O)[C@H](C)O4)[C@H](C)O3)[C@@H](C)/C=C/C=C3\CO[C@@H]4[C@H](O)C(C)=C[C@@H](C(=O)O1)[C@]34O)O2 (some centres not stated)	M14 melanoma	0.37

###

- Test system: SK-MEL-2 melanoma
- assayProcedure: NCI tumour cell line growth inhibition, 48 h
// reported GI50 for each item listed
readoutName: GI50

compound	assayedSystem	measValue
c1csc(-c2cn3nc(-c4c[nH]c5ccccc45)sc3n2)c1	SK-MEL-2 melanoma	1.08 µM
COc1ccc(-c2nc(/C=N/Nc3cc(C)nc4ccc(Cl)cc34)c(C)o2)cc1	SK-MEL-2 melanoma	10.9 µM
C[C@]12CCc3sc(NCCc4ccccc4)nc3C1=CC[C@@H]1[C@@H]2CC[C@]2(C)C(=O)CC[C@@H]12	SK-MEL-2 melanoma	17 µM
CNCCCn1c2c(c3ccc([N+](=O)[O-])cc3c1=O)C(=O)c1cc(OC)cnc1-2	SK-MEL-2 melanoma	0.348 µM
CN[C@H](C#Cc1c(F)ccc2c1/C(=C/c1[nH]ccc1OC)C(=O)N2)CO	SK-MEL-2 melanoma	0.199 µM
CCC(C)[C@H]1O[C@]2(C=C[C@@H]1C)C[C@@H]1C[C@@H](C/C=C(\C)[C@@H](OC3C[C@H](OC)C(O[C@H]4C[C@H](OC)[C@@H](O)[C@H](C)O4)[C@H](C)O3)[C@@H](C)/C=C/C=C3\CO[C@@H]4[C@H](O)C(C)=C[C@@H](C(=O)O1)[C@]34O)O2 (stereo partly drawn)	SK-MEL-2 melanoma	1.24 µM
Cc1ccc(-c2nc(C#N)c(S(=O)(=O)n3nc(C)cc3N)o2)cc1	SK-MEL-2 melanoma	15 µM
N#CCCN(CCCN(CCCN(C(=O)Nc1ccccc1)c1ccccc1)C(=O)Nc1ccccc1)C(=O)Nc1ccccc1	SK-MEL-2 melanoma	> 100 µM
C=CCC1(O)c2ccccc2C(=O)c2c(NCCN(CC(=O)OCC)CC(=O)OCC)cccc21 (stereo not drawn)	SK-MEL-2 melanoma	> 100 µM
NC(=O)c1ccc(I)c(N=O)c1	SK-MEL-2 melanoma	31.3 µM
CNC(=O)c1cccc2cc(Oc3ccnc4cc(OCC5(N)CC5)c(OC)cc34)ccc12	SK-MEL-2 melanoma	14.3 µM
COC(=O)[C@@]12OC[C@]34[C@H]([C@@H](O)[C@@H]1O)[C@@]1(C)[C@H](O)C(=O)C=C(C)[C@@H]1C[C@H]3OC(=O)C(OC(C)=O)[C@@H]24 (stereo partly drawn)	SK-MEL-2 melanoma	0.0574 µM
CCn1cnc(C[C@H](NC(=O)[C@@H](NC(=O)Nc2cc(C(F)(F)F)cc(C(F)(F)F)c2)C(C)C)C(=O)OC)c1	SK-MEL-2 melanoma	> 10 µM

###

- System: SK-MEL-2 melanoma
- assayProcedure: NCI tumour cell line growth inhibition, 48 h
Quick rule for you: TGI at 30 µM or higher means True, lower means False.

compound	labelValue
C[C@@H](c1ccccc1)N1CN(C(=O)OCc2ccccc2)C(C)(C)CC1=O	True
Clc1cc2c(cc1Cl)CC(NCCN1CCCC1)CC2 (configuration not stated)	True
COc1cccc([C@H]2C/C(=N\NC(=O)C(=O)N[C@@H](C)c3ccccc3)c3ccccc3N2)c1	True
COc1cc(NC(C)CCCN)c2ncccc2c1 (configuration not stated)	True
COc1ccc(C(=O)/C=C/c2cccc([N+](=O)[O-])c2)c(OC)c1	True
CCOC(=O)Cn1c(=O)c2nc(SC)sc2n(CC)c1=S	True
N#C/C(c1nc2ccccc2[nH]1)=c1\s/c(=C/c2ccc(Cl)cc2)c(=O)n1-c1ccccc1	True
C=CCC(N(C)C(=O)[C@H](Cc1ccccc1)NC(=O)OCc1ccccc1)P(=O)(Oc1ccccc1)Oc1ccccc1 (some centres not stated)	True
O=C(CC(=O)C1=CNc2ccccc2S1)C(=O)Nc1ccc(Cl)cc1	True
CC(=O)Oc1ccc(-c2cc3ccccc3oc2=O)cc1	True
CC(C)CC(NC(=O)OC(C)(C)C)C(=O)Nc1ccc(Nc2nc(F)nc(-c3c4ccccc4c4n3CCS4)n2)cc1 (configuration not stated)	True
COc1ccc(CNC(=O)NCn2cc(-c3ccccc3)nn2)cc1	True
Nc1ccc2c(SCc3ccc([N+](=O)[O-])cc3)c3ccccc3nc2c1	True
CC1=CC(=O)c2ccccc2C1=O	False
CCOC(=O)C1=NN(c2ccc(C)cc2)C2=CC(C)=NN(C)C(=S)N21	True
O=C(C[n+]1ccc2ccccc2c1)c1ccc2ccc3ccccc3c2c1	False
O=c1[nH]nc2ccccc2c1Cc1ccccc1	True
c1cc2n(n1)CCN2	True
CCCc1cc(=O)[nH]c(-n2nc(C)cc2C)n1	True
c1ccc(C(c2ccccc2)c2cccnc2)cc1	True
COC(=O)[C@@]12OC[C@]34[C@H]([C@@H](O)[C@@H]1O)[C@@]1(C)[C@H](O)C(=O)C=C(C)[C@@H]1C[C@H]3OC(=O)C(OC(C)=O)[C@@H]24 (some centres not stated)	False
COc1cc2c3c(n(CCCCN)c(=O)c2cc1OC)-c1cc2c(cc1C3=O)OCO2	False
CCCCC[C@H]1C/C=C2/C(=O)C=C[C@@H]2C/C=C\CCCC(=O)O[C@@H](CCCCC)C/C=C2/C(=O)C=C[C@@H]2C/C=C\CCCC(=O)O1	False
O=c1oc(Cl)c(Cl)c2ccccc12	True
COc1cc2ccccc2oc1=O	True
CN[C@H](C#Cc1c(F)ccc2c1/C(=C/c1[nH]ccc1OC)C(=O)N2)CO	False
COc1cc2c(ccc3c4cc(OC)c(OC)cc4c[n+](C)c23)cc1O	True
COc1nc(C#CC2(O)CCCCC2)nc(OC)n1	False
O=CN/C=C/c1cccc(O)c1	True
CC(C)OCC1CC(CC(=O)Nc2nncs2)C(=O)O1 (configuration not stated)	True
CCOC(=O)C(NC(=O)c1ccco1)(Nc1nc2ccc(OCC)cc2s1)C(F)(F)F (configuration not stated)	True
COc1ccc(-n2c(=O)[nH]n(C(C)=O)c2=O)cc1	True
COc1cccc2c1C(=O)c1c(O)c3c(c(O)c1C2=O)CC(O)(C(O)CO)CC3OC1CC(N2CCOCC2)C(O)C(C)O1 (configuration not stated)	False
Cc1ccc(-c2nc(C#N)c(S(=O)(=O)n3nc(C)cc3N)o2)cc1	True
COC(=O)CC1NC(=O)[C@@H]1C(C)O (some centres not stated)	True
COc1ccc2c(=O)cc(-c3ccncc3)oc2c1OC	True
Cc1cc(Cl)ccc1Nc1nc(C(F)(F)F)ccc1C(=O)N/N=C/c1ccc(Cl)cc1	False
Cc1nn(-c2ccccc2)c(C)c1/C=N/N=C1\SCC(=O)N1c1ccccc1	True
COc1cc(-c2cc(-c3ccccc3)nc(-c3c(OC)ccc4c(C)cc(=O)oc34)c2)cc(OC)c1OC	True
